Values compiled from patent US20250051346A1.

- target.entity: 5-HT2A (Homo sapiens)
- Sequence (P28223 whole entry): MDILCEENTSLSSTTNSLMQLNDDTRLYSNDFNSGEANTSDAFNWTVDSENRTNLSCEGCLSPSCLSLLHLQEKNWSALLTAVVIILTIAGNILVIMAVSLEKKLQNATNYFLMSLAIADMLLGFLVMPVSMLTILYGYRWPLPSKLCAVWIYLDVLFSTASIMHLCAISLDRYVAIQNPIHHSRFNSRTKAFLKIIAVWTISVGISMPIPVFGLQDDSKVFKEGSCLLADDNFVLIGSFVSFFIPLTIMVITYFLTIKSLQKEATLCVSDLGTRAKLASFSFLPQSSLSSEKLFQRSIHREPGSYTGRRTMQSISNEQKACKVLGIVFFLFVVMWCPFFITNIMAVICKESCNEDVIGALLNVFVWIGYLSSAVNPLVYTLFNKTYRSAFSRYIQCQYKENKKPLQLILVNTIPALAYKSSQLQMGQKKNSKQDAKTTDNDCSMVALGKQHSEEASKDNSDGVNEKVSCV
- protocol.notes: Serotonin 5-HT2A in vitro cellular IPOne antagonism assay
- Format: cell-based
- Design: host or cells: CHO-K1
- reported.conditions: CHO-K1 cells; reference agonist a-Me-5HT
Catalogue of IC50 values

These recorded examples may help you get a feel for the data.
c1ccc2c3c(oc2c1)CCN(C1CCC1)CC3 :: > 10000 nM
CN1CCc2sc3cc(F)ccc3c2CC1 :: 10 to 100 nM
c1ccc(COc2cccc3oc4c(c23)CCNCC4)cc1 :: 101 to 1000 nM
COc1cccc2oc3c(c12)CN(C1CCC1)CCC3 :: 101 to 1000 nM
c1ccc2c3c(sc2c1)CCN(C1CCC1)CC3 :: 101 to 1000 nM

INPUT: Identify the measured IC50 of COc1ccc2c3c(sc2c1)CCN(C)CC3 for 5-HT2A (Homo sapiens).
OUTPUT: 101 to 1000 nM

INPUT: And the next one, CN1CCc2oc3cc(F)ccc3c2CC1 ?
OUTPUT: 101 to 1000 nM

INPUT: And the next one, Fc1ccc2c3c(sc2c1)CCN(C1CCC1)CC3 ?
OUTPUT: 10 to 100 nM

INPUT: And the next one, CN1CCc2sc3ccccc3c2CC1 ?
OUTPUT: 10 to 100 nM

INPUT: And the next one, CN1CCc2sc3cc(OC(F)(F)F)ccc3c2CC1 ?
OUTPUT: 101 to 1000 nM

INPUT: And the next one, CN1CCc2oc3ccccc3c2CC1 ?
OUTPUT: 101 to 1000 nM
